targetSystem: human FFAR1 (GPR40) (Homo sapiens, UniProt O14842)
Construct: Flag; expressed in transfected cells; host or cells: HEK293T
Sequence (O14842 whole entry): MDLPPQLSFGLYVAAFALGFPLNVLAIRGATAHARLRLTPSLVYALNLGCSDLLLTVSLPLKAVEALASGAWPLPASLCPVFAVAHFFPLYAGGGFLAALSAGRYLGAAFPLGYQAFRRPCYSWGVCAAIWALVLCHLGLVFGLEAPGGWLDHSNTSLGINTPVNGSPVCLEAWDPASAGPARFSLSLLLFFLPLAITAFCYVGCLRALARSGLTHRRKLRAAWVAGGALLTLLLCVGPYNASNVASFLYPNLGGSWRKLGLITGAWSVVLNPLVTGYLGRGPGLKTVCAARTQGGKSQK
assayComment: NFAT-RE-based reporter gene activity assay (Dual-Glo luciferase) for GPR40 agonistic activity in co-transfected HEK293T cells
Assay type: cell-based
experimentalParameters: 4-hour treatment, class symbols
assayEndpoint: Efficacy (%)

[
  {
    "molecule": "COc1cccc(N2CCC(c3oc4cc(C(CC(=O)O)C5CC5)ccc4c3C(=O)N3CC4(CCC4)C3)CC2)c1 (stereo not drawn)",
    "targetSystem": "human FFAR1 (GPR40) (Homo sapiens, UniProt O14842)",
    "reported": "††† (Efficacy (%) > 150)"
  },
  {
    "molecule": "COc1ccc(F)c(N2CCC(c3oc4cc([C@H](C5CC5)C(F)C(=O)O)ccc4c3-c3ccc(C(C)(C)C)cc3)CC2)c1 (stereo partly drawn)",
    "targetSystem": "human FFAR1 (GPR40) (Homo sapiens, UniProt O14842)",
    "reported": "††††"
  },
  {
    "molecule": "COc1cccc(N2CCC(c3oc4cc(C(CC(=O)O)C5CC5)ccc4c3C(=O)Nc3noc4ccccc34)CC2)c1 (stereo not drawn)",
    "targetSystem": "human FFAR1 (GPR40) (Homo sapiens, UniProt O14842)",
    "reported": "††† (Efficacy (%) > 150)"
  },
  {
    "molecule": "COc1cccc(N2CCC(c3oc4cc([C@@H](CC(=O)O)C5CC5)ccc4c3-c3csc(C(C)(C)C)n3)CC2)c1",
    "targetSystem": "human FFAR1 (GPR40) (Homo sapiens, UniProt O14842)",
    "reported": "††† (Efficacy (%) > 150)"
  }
]

---

targetSystem: human FFAR1 (GPR40) (Homo sapiens, UniProt O14842)
Construct: Flag
assayComment: NFAT-RE-based reporter gene activity assay (Dual-Glo luciferase) for GPR40 agonistic activity in co-transfected HEK293T cells
experimentalParameters: 4-hour treatment
For each of the compounds below, state its EC50.

Write down EC50 measured for item COc1ccc(F)c(N2CCC(c3oc4cc([C@@H](CC(=O)O)C5CC5)ccc4c3-c3ccc(C(C)O)cc3)CC2)c1 (stereo partly shown) [Compound 175] > 500 nM

Return EC50 (reported value) for this compound: COc1cccc(N2CCC(c3oc4cc(C(CC(=O)O)C5CC5)ccc4c3-c3cnn(C)c3)CC2)c1 (stereo not shown) [Compound 36] 100 to 500 nM

# return recorded EC50 for entry COc1cccc(N2CCC(c3oc4cc(C(CC(=O)O)C5CC5)ccc4c3C(=O)Nc3cc(C(C)(C)C)on3)CC2)c1 (stereo not shown) [Compound 300] 100 to 500 nM

Output measured EC50 for this item: COc1cccc(N2CCC(c3oc4cc(C(CC(=O)O)C5CC5)ccc4c3C(=O)Nc3c(F)cccc3F)CC2)c1 (stereo not shown) [Compound 256] 100 to 500 nM

Give a short answer stating reported EC50 for COc1cccc(N2CCC(c3oc4cc(C(CC(=O)O)C5CC5)ccc4c3C(=O)Nc3ccccc3C(F)(F)F)CC2)c1 (stereo not shown) [Compound 237] . 10 to 100 nM

Please report the measured EC50 for COc1cccc(N2CCC(c3oc4cc(C(CC(=O)O)C5CC5)ccc4c3-c3nnc(C4(C)CCCCC4)o3)CC2)c1 (stereo not shown) [Compound 140] 100 to 500 nM

Note down EC50 recorded for COc1cccc(N2CCC(c3oc4cc([C@@H](CC(=O)O)C5CC5)ccc4c3-c3cc(C(C)(C)C)no3)CC2)c1 [Compound 116] ≤ 10 nM

---

targetSystem: human FFAR1 (GPR40) (Homo sapiens, UniProt O14842)
Construct: Flag
assayComment: NFAT-RE-based reporter gene activity assay (Dual-Glo luciferase) for GPR40 agonistic activity in co-transfected HEK293T cells
experimentalParameters: 4-hour treatment
pEC50: −log10 of the molar value.
For each of the compounds below, state its pEC50.

// Input: COc1cccc(N2CCC(c3oc4cc(C(CC(=O)O)C5CC5)ccc4c3C(=O)Nc3ccc(F)cc3F)CC2)c1 (stereo not drawn) [Compound 255] . Output its pEC50 only. 6.30 to 7.00

Input CCCCCCC(C)(C)c1nnc(-c2c(C3CCN(c4cccc(OC)c4)CC3)oc3cc(C(CC(=O)O)C4CC4)ccc23)o1 (stereo not drawn) [Compound 452] , output reported pEC50. 7.00 to 8.00

In one line, give reported pEC50 of the entry COc1cccc(N2CCC(c3oc4cc(OC(C)C(=O)O)ccc4c3-c3cnn(C(C)(C)C)c3)CC2)c1 (stereo not drawn) [Compound 65] . 6.30 to 7.00

Respond only with pEC50 recorded for COc1cccc(N2CCC(c3oc4cc([C@@H](CC(=O)O)C5CC5)ccc4c3C(C)OCCC(C)(C)C)CC2)c1 (stereo partly drawn) [Compound 412] 6.30 to 7.00

Assign pEC50 to the following record: COc1cccc(N2CCC(c3oc4cc([C@@H](CC(=O)O)C5CC5)ccc4c3-c3cnc(C(C)C)s3)CC2)c1 [Compound 102] 7.00 to 8.00

Item COc1cccc(N2CCC(c3oc4cc([C@@H](CC(=O)O)C5CC5)ccc4c3COc3ccccc3)CC2)c1 [Compound 404] : provide pEC50 6.30 to 7.00

Given COc1cccc(N2CCC(c3oc4cc([C@@H](CC(=O)O)C5CC5)ccc4c3-c3ccc4c(c3)C3(CCCCC3)c3ccccc3-4)CC2)c1 [Compound 81] , respond with its pEC50. 6.30 to 7.00

Look up and report measured pEC50 for this entry: COc1cccc(N2CCC(c3oc4cc(C(CC(=O)O)C5CC5)ccc4c3C(=O)NC3CCCCC3)CC2)c1 (stereo not drawn) [Compound 344] 6.30 to 7.00

Using known records, supply pEC50 for COc1ccccc1N1CCC(c2oc3cc(C(CC(=O)O)C4CC4)ccc3c2-c2cccc(C(C)(C)C)c2)CC1 (stereo not drawn) [Compound 21] 6.30 to 7.00

Dear colleague, please send me the reported pEC50 for COc1ccc(F)c(N2CCC(c3oc4cc(C(CC(=O)O)C5CC5)ccc4c3-c3cccc(-n4cccn4)c3)CC2)c1 (stereo not drawn) [Compound 193] when you can. 6.30 to 7.00

Dear colleague, please send me the reported pEC50 for COc1ccnc(N2CCC(c3oc4cc(C(CC(=O)O)C5CC5)ccc4c3-c3ccc(C(C)(C)C)cc3)CC2)c1 (stereo not drawn) [Compound 32] when you can. 6.30 to 7.00

Using the record for Cc1ccc(Cl)c(NC(=O)c2c(C3CCN(c4ccc5c(c4)OCO5)CC3)oc3cc([C@@H](CC(=O)O)C4CC4)ccc23)c1 [Compound 332] , state its measured pEC50. ≥ 8.00

For the compound COc1cccc(N2CCC(c3oc4cc([C@@H](CC(=O)O)C5CC5)ccc4c3C(OCC(C)C)c3ccccc3C)CC2)c1 (stereo partly drawn) [Compound 429] , give its measured pEC50 value. 6.30 to 7.00

Dear colleague, please send me the reported pEC50 for COc1ccc(C(=O)N(CC(C)(C)C)c2cccc(C)n2)c(N2CCC(COc3cc([C@@H](CC(=O)O)C4CC4)ccn3)CC2)c1 [SCO-267, SCO267, reference compound] when you can. 7.00 to 8.00

For the compound COc1cccc(N2CCC(c3oc4cc([C@@H](CC(=O)O)C5CC5)ccc4c3C(C)OCC[C@@H](C)CCC=C(C)C)CC2)c1 (stereo partly drawn) [Compound 415] , give its reported pEC50. < 6.30

Tell us which pEC50 value is on record for COc1cccc(N2CCC(c3oc4cc(C(CC(=O)O)C5CC5)ccc4c3-c3nnc(C(C)C)o3)CC2)c1 (stereo not drawn) [Compound 123] 6.30 to 7.00

Note pEC50 for the compound shown: CCNC(=O)c1c(C2CCN(c3cc(OC)ccc3F)CC2)oc2cc(C(CC(=O)O)C3CC3)ccc12 (stereo not drawn) [Compound 312] 6.30 to 7.00

Note down pEC50 recorded for COc1cccc(N2CCC(c3oc4cc([C@@H](CC(=O)O)C5CC5)ccc4c3C(OCC(C)C)c3ccccc3)CC2)c1 (stereo partly drawn) [Compound 426] 7.00 to 8.00

Given CCC(C)COC(C)c1c(C2CCN(c3cccc(OC)c3)CC2)oc2cc([C@@H](CC(=O)O)C3CC3)ccc12 (stereo partly drawn) [Compound 413] , respond with its pEC50. 6.30 to 7.00

Fill in pEC50 for record COc1cccc(N2CCC(c3oc4cc(C(CC(=O)O)C5CC5)ccc4c3C(=O)NC34CC5CC(C)(CC(C)(C5)C3)C4)CC2)c1 (stereo not drawn) [Compound 351] 7.00 to 8.00

Return value of pEC50 for input COc1cccc(N2CCC(c3oc4cc(C(CC(=O)O)C5CC5)ccc4c3-c3cn(C(C)C)cn3)CC2)c1 (stereo not drawn) [Compound 104] , no commentary. < 6.30

Answer with the recorded pEC50 of COc1ccc(F)c(N2CCC(c3oc4cc([C@@H](CC(=O)O)C5CC5)ccc4c3-c3cccc(C(C)(C)C)c3)CC2)c1 [Compound 166] only. 7.00 to 8.00

Name the recorded pEC50 of the compound listed here: COc1cccc(N2CCC(c3oc4cc([C@@H](CC(=O)O)C5CC5)ccc4c3C(=O)Nc3cc(F)ccc3F)CC2)c1 [Compound 257] ≥ 8.00

# return recorded pEC50 for entry COc1cccc(N2CCC(c3oc4cc([C@@H](CC(=O)O)C5CC5)ccc4c3C(C)OCC3CCC3)CC2)c1 (stereo partly drawn) [Compound 418] 7.00 to 8.00

Given the compound COc1ccc(F)c(N2CCC(c3oc4cc(C(CC(=O)O)C5CC5)ccc4c3/C=C/C(C)(C)O)CC2)c1 (stereo not drawn) [Compound 368] , write its reported pEC50. 6.30 to 7.00

Return value of pEC50 for input CC(C)(C)c1cccc(-c2c(C3CCN(c4ccccc4Cl)CC3)oc3cc(C(CC(=O)O)C4CC4)ccc23)c1 (stereo not drawn) [Compound 22] , no commentary. 6.30 to 7.00

Please give measured pEC50 of the following entry: CCCOC(C)c1c(C2CCN(c3cccc(OC)c3)CC2)oc2cc([C@@H](CC(=O)O)C3CC3)ccc12 (stereo partly drawn) [Compound 408] 6.30 to 7.00
